# Tested on: acetylation of the histone H3K23 marker in U2OS cells
# EXPERIMENT: Histone H3 Lysine 23 Acetylation Biomarker Assay
# Type: cell-based
# CONDITIONS: Homo sapiens, U2OS, 24 h
I'd be grateful if you could share measured pIC50 for these entries.
Answers are plain numbers, as −log10 of the molar value.

Request: Please give the measured pIC50 for this compound: CCOc1ccccc1-c1cc(NS(=O)(=O)c2c(OC)cccc2OC)no1
Response: 6.05

Request: Look up pIC50: COCc1ccc(OC)c(-c2cc(NS(=O)(=O)c3c(OC)cccc3OC)no2)c1
Response: 7.77

Request: Reported pIC50 for COc1ccc(OC)c(-c2cc(NS(=O)(=O)c3c(OC)cc(-c4ccccc4)cc3OC)no2)c1 : what is it?
Response: 6.33

Request: Quick one: pIC50 for COc1cccc(OC)c1S(=O)(=O)Nc1cc(-c2ccccc2OC(F)(F)F)on1 ?
Response: 5.67

Request: Look up pIC50: COc1ccccc1-c1cc(NS(=O)(=O)NC2CCCCC2)no1
Response: 5.25

Alright, here's another compound for you.
Request: Which pIC50 is listed for COc1ccc(-c2ccn[nH]2)cc1-c1cc(NS(=O)(=O)c2c(OC)cccc2OC)no1 ?
Response: 6.69
